Reference source for all entries: paper PMC12183592

# pKi per entry for M3 (Homo sapiens)
pKi: −log10 of the molar value.

molecule | pKi
c1ccc2c3c([nH]c2c1)C1CC2C[C@H](C4CCOCC4)C1N(CC3)C2 (stereo partly drawn) [7i] | 7.13
CCC1CC2CC3c4[nH]c5cc(Cl)ccc5c4CCN(C2)C13 (stereo not drawn) [7b] | 6.09
CC(C)[C@H]1CC2CC3c4[nH]c5ccccc5c4CCN(C2)C31 (stereo partly drawn) [7h] | 6.38

###

pKi: −log10 of the molar value.
The following molecules each carry a recorded pKi for M3 (Homo sapiens, UniProt P20309).

molecule | pKi
CC[C@H]1C[C@H]2C[C@H]3c4[nH]c5ccccc5c4CCN(C2)[C@@H]13 [ibogamine (1), ibogamine, reference compound] | 5.61
CCC1CC2CC3c4[nH]c5cc(Br)ccc5c4CCN(C2)C13 (stereo not shown) | 5.82
CCC1CC2CC3c4[nH]c5cc(C(F)(F)F)ccc5c4CCN(C2)C13 (stereo not shown) | 5.71
CCC1CC2CC3c4[nH]c5cc(F)ccc5c4CCN(C2)C13 (stereo not shown) | 6.13

###

# system_tested: KOR (Homo sapiens)
# Sequence (P41145 whole entry): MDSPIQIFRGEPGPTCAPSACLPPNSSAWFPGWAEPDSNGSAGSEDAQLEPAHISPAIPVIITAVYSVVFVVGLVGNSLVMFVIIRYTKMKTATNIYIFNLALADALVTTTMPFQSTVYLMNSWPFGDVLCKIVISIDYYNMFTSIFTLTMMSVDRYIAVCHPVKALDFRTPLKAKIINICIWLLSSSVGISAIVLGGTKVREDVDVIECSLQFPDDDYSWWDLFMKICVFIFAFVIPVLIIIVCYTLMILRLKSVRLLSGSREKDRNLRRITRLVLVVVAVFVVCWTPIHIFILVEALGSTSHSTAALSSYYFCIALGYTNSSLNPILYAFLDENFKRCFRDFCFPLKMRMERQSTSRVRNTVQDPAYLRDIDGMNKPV
# test: PDSP secondary radioligand displacement assay, Ki
# Assay type: binding
# experimental_context: supplement xlsx
endpoint: Ki (nM)

compound | numeric_result
CCC1CC2CC3c4[nH]c5cc(Cl)ccc5c4CCN(C2)C13 (stereo not drawn) | 1400
CCC1CC2CC3c4[nH]c5cc(F)ccc5c4CCN(C2)C13 (stereo not drawn) | 4770
CC[C@H]1C[C@@H]2C[C@H]3c4[nH]c5cc(OC)ccc5c4CC[N@@](C2)[C@@H]13 [tabernanthine (3), tabernanthine, reference compound] | 319
CCC1CC2CC3c4[nH]c5cc(Br)ccc5c4CCN(C2)C13 (stereo not drawn) | 1040
CC(C)[C@H]1CC2CC3c4[nH]c5ccccc5c4CCN(C2)C31 (stereo partly drawn) | 995
CCC1CC2CC3c4[nH]c5cc(C(F)(F)F)ccc5c4CCN(C2)C13 (stereo not drawn) | 1500

###

# system_tested: D2 (Homo sapiens, UniProt P14416)
# Sequence (P14416 whole entry): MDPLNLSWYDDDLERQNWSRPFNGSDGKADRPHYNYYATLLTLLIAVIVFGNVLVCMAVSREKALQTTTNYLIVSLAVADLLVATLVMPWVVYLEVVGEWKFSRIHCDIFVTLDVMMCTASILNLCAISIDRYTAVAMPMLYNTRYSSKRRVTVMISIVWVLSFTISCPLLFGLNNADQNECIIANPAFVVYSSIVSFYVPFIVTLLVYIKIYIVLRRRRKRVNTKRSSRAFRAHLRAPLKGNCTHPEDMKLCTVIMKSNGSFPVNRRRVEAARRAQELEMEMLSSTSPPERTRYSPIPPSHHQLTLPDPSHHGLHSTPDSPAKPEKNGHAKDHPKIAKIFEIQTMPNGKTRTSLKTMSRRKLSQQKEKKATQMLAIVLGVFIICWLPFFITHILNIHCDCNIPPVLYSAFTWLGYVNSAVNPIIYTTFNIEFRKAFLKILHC
# test: PDSP secondary radioligand displacement assay, Ki
pKi: −log10 of the molar value.

compound | system_tested | pKi
CCC1CC2CC3c4c(c5ccccc5n4CC=C(C)C)CCN(C2)C13 (stereo not shown) | D2 (Homo sapiens, UniProt P14416) | 5.62

###

# system_tested: H3 (Homo sapiens, UniProt Q9Y5N1)
# Sequence (Q9Y5N1 whole entry): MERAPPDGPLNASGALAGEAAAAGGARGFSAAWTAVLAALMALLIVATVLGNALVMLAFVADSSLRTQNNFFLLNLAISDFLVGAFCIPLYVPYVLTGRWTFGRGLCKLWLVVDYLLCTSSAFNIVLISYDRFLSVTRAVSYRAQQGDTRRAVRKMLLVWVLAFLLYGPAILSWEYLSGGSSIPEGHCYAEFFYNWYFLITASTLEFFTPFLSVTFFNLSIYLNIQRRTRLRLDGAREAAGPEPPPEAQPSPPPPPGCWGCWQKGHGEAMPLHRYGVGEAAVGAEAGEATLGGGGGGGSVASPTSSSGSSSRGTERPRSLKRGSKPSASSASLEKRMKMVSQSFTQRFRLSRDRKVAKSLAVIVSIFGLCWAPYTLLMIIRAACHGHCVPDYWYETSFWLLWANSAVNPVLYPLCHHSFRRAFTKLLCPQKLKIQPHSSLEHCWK
# test: PDSP secondary radioligand displacement assay, Ki
# Assay type: binding
endpoint: Ki

compound | result
CCC1CC2CC3c4[nH]c5cc(C(F)(F)F)ccc5c4CCN(C2)C13 (centres unmarked) [7e] | 2290 nM
CCC1CC2CC3c4[nH]c5cc(Br)ccc5c4CCN(C2)C13 (centres unmarked) [7c] | 3320 nM
CCC1CC2CC3c4[nH]c5cc(Cl)ccc5c4CCN(C2)C13 (centres unmarked) [7b] | 2880 nM
CCC1CC2CC3c4[nH]c5cc6c(cc5c4CCN(C2)C13)OCO6 (centres unmarked) [7f] | 5410 nM
CC[C@H]1C[C@@H]2C[C@H]3c4[nH]c5cc(OC)ccc5c4CC[N@@](C2)[C@@H]13 [tabernanthine (3), tabernanthine, reference compound] | 2300 nM

###

# system_tested: H4 (Homo sapiens, UniProt Q9H3N8)
# Sequence (Q9H3N8 whole entry): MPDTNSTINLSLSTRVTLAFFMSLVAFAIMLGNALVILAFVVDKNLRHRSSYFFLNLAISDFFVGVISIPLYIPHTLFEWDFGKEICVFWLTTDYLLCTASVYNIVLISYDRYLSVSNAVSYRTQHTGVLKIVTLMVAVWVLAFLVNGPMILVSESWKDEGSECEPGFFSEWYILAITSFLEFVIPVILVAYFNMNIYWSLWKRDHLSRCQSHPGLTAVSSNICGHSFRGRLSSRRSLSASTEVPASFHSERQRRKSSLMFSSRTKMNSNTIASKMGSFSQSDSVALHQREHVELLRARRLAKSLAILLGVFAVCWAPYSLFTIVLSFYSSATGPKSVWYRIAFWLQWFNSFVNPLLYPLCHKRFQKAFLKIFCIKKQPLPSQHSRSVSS
# test: PDSP secondary radioligand displacement assay, Ki
# Format: binding
# experimental_context: supplement xlsx

compound | system_tested | Ki
CCC1CC2CC3c4[nH]c5cc(C(F)(F)F)ccc5c4CCN(C2)C13 (stereo not shown) [7e] | H4 (Homo sapiens, UniProt Q9H3N8) | 3030 nM

###

Known pKi of a selection of compounds
# system_tested: M5 (Homo sapiens, UniProt P08912)
# Sequence (P08912 1-532): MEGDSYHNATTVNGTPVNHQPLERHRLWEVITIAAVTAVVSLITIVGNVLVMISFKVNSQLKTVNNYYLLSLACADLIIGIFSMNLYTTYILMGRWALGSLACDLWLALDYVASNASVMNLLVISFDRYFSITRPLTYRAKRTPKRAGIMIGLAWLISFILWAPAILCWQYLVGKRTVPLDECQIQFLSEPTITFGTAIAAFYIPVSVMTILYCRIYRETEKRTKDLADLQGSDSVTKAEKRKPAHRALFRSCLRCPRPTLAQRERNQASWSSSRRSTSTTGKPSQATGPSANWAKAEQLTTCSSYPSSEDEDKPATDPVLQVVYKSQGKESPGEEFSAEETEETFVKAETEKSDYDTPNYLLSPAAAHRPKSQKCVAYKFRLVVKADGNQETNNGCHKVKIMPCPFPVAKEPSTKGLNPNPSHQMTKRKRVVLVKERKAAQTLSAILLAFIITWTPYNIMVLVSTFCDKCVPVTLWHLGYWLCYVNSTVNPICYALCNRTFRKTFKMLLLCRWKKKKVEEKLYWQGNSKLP
pKi: −log10 of the molar value.
endpoint: pKi

compound | numeric_result
CC(C)[C@H]1CC2CC3c4[nH]c5ccccc5c4CCN(C2)C31 (some centres unmarked) | 5.96
c1ccc2c3c([nH]c2c1)C1CC2C[C@H](C4CCOCC4)C1N(CC3)C2 (some centres unmarked) | 6.65

###

Reported Ki is given for each of the following compounds.
# system_tested: Alpha2A (Homo sapiens)
# Sequence (P08913 1-465): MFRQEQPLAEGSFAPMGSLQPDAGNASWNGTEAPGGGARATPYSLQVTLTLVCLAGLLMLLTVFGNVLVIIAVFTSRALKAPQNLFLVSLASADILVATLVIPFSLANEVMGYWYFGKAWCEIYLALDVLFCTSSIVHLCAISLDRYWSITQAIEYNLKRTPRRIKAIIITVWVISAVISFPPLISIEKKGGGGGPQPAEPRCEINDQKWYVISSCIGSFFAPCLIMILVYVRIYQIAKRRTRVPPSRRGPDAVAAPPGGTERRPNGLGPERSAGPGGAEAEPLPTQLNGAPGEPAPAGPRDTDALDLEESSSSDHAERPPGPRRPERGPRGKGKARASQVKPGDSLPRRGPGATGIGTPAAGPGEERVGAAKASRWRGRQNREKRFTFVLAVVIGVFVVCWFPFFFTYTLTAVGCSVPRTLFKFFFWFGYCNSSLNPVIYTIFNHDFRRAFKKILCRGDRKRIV
endpoint: Ki (µM)

compound | endpoint | numeric_result
CCC1CC2CC3c4[nH]c5cc(C(F)(F)F)ccc5c4CCN(C2)C13 (stereo not shown) [7e] | Ki | 1.42
CCC1CC2CC3c4[nH]c5cc(Br)ccc5c4CCN(C2)C13 (stereo not shown) [7c] | Ki | 1.63
CCC1CC2CC3c4[nH]c5cc(F)ccc5c4CCN(C2)C13 (stereo not shown) [7a] | Ki | 4.1
CCC1CC2CC3c4[nH]c5cc(Cl)ccc5c4CCN(C2)C13 (stereo not shown) [7b] | Ki | 1.72

###

Read-out record for M2 (Homo sapiens, UniProt P08172): Ki

compound | Ki, nM
CCC1CC2CC3c4[nH]c5cc(Br)ccc5c4CCN(C2)C13 (stereo not shown) | 8030
c1ccc2c3c([nH]c2c1)C1CC2C[C@H](C4CCOCC4)C1N(CC3)C2 (stereo partly shown) | 150
CCC1CC2CC3c4[nH]c5cc(Cl)ccc5c4CCN(C2)C13 (stereo not shown) | 2940
CCC1CC2CC3c4[nH]c5cc(F)ccc5c4CCN(C2)C13 (stereo not shown) | 2690

###

# system_tested: Alpha2C (Homo sapiens, UniProt P18825)
# Sequence (P18825 whole entry): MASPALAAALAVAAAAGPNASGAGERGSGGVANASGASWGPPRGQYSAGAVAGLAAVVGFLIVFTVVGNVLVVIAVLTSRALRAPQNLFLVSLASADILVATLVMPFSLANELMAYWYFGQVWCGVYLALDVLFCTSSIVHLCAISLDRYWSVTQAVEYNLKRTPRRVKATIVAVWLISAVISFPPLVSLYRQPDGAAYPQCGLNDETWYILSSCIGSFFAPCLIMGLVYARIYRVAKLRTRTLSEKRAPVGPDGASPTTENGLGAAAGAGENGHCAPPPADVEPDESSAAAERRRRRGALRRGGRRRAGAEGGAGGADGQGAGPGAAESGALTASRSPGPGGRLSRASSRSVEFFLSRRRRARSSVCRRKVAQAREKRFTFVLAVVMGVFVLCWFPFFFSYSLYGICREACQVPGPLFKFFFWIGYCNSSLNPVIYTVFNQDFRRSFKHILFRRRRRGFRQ
# test: PDSP secondary radioligand displacement assay, Ki
# Type: binding
# experimental_context: Ki values (nM) Alpha2C, supplement xlsx and text
Entries and their measured Ki follow.

compound | Ki [nM]
CCC1CC2CC3c4[nH]c5cc(F)ccc5c4CCN(C2)C13 (stereo not shown) [7a] | 623
CCC1CC2CC3c4[nH]c5cc(C(F)(F)F)ccc5c4CCN(C2)C13 (stereo not shown) [7e] | 110
CCC1CC2CC3c4[nH]c5cc(Cl)ccc5c4CCN(C2)C13 (stereo not shown) [7b] | 1360
CCC1CC2CC3c4[nH]c5cc(Br)ccc5c4CCN(C2)C13 (stereo not shown) [7c] | 71

###

Measured Ki, listed per entry for reference.
# system_tested: 5-HT2A (Homo sapiens)
# Sequence (P28223 whole entry): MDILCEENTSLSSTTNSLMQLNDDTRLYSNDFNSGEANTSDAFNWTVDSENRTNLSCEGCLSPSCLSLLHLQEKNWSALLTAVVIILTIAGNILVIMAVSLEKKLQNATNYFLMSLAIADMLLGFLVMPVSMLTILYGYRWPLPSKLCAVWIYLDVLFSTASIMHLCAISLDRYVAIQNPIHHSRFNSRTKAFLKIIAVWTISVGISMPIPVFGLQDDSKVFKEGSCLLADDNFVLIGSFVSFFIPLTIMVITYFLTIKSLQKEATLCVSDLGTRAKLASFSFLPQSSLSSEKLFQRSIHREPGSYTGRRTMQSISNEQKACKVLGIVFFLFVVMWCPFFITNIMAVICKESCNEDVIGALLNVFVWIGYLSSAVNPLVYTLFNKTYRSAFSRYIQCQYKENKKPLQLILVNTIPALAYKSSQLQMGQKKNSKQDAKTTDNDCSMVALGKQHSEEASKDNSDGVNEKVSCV
# test: PDSP secondary radioligand displacement assay, Ki
# Type: binding
# experimental_context: supplement xlsx

compound | reading_unit | Ki
CCC1CC2CC3c4[nH]c5cc(Cl)ccc5c4CCN(C2)C13 (centres unmarked) [7b] | nM | 3000
CCC1CC2CC3c4[nH]c5cc(C(F)(F)F)ccc5c4CCN(C2)C13 (centres unmarked) [7e] | nM | 1800

###

Consider the following compounds and their measured Ki readings.
# system_tested: 5-HT3 (Homo sapiens, UniProt P46098)
# Sequence (P46098 24-478, species assumed): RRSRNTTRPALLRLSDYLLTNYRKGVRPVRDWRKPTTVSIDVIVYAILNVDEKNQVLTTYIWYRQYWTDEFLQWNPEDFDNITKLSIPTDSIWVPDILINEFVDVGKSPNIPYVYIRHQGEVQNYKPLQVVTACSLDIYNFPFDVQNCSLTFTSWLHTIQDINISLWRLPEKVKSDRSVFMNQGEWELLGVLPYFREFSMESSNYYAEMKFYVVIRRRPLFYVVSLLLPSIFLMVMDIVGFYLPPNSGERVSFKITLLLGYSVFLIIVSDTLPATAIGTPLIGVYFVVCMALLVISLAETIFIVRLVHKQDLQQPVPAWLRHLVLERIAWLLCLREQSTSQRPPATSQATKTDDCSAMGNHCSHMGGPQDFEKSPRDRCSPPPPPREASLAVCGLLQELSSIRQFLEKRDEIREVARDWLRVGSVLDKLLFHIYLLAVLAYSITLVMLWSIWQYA
# test: PDSP secondary radioligand displacement assay, Ki
# Assay type: binding
# experimental_context: supplement xlsx

compound | reading_unit | Ki
CCC1CC2CC3c4[nH]c5cc(Cl)ccc5c4CCN(C2)C13 (centres unmarked) | nM | 1010
CCC1CC2CC3c4[nH]c5cc(Br)ccc5c4CCN(C2)C13 (centres unmarked) | nM | 1400
